src = ChEMBL document CHEMBL1131326

Entries and their pIC50 values follow.
- Test system: HFF
- ASSAY REMARKS: Visual cytotoxicity scored on HFF cells at a time of HCMV plaque enumeration
- Assay type: functional, cell-based
- MEASUREMENT CONDITIONS: Homo sapiens
pIC50: −log10 of the molar value.

Illustrative cases are given below, each with its answer.
structure_smiles_string=Nc1nc2cc(Cl)c(Cl)cc2n1Cc1ccccc1 target_or_test_system=HFF recorded_measurement=4.24
structure_smiles_string=Cc1ccc(Cn2c(Br)nc3cc(Cl)c(Cl)cc32)cc1 target_or_test_system=HFF recorded_measurement="< 4.00"
structure_smiles_string=O=[N+]([O-])c1ccc(Cn2c(Cl)nc3cc(Cl)c(Cl)cc32)cc1 target_or_test_system=HFF recorded_measurement="< 4.00"

Entry Cc1cccc(Cn2c(Cl)nc3cc(Cl)c(Cl)cc32)c1 , HFF data, pIC50 value: < 4.00

Entry Nc1nc2cc(Cl)c(Cl)cc2n1Cc1cccc(Cl)c1 , HFF data, pIC50 value: < 4.00
